Data provenance: patent US6489364B2

Biological target: purified HIV proteinase (Human immunodeficiency virus type 1 group M subtype B)
Construct: purified HIV proteinase
Experiment: biochemical
Conditions: values printed without parentheses; concentration inhibiting enzyme performance by 50%
property_measured: IC50
A complete answer gives the number followed by the unit.

Entry CNC(=O)C(NC(=O)C(CC(O)C(OCc1ccccc1)C(=O)NC(C(=O)NC)C(C)C)OCc1ccccc1)C(C)C (stereo not shown) [Example 3] needs its IC50 filled in; supply it.
4 nM

----------
Target: purified HIV proteinase (Human immunodeficiency virus type 1 group M subtype B)
Construct: purified HIV proteinase
Experiment: biochemical
Details: read-out: (Ki μM)
Experimental: Representative compounds were tested for HIV protease activity in a spectrophotometric enzyme assay using the chromogenic substrate His-Lys-Ala-Arg-Val-Leu-p-nitro-Phe-Glu-Ala-Nle-Ser-amide and purified HIV proteinase. The rate of cleavage is followed by continuously registering the change in absorbance at 300 nm. […]
property_measured: Ki (µM)
The response must be a number in µM with no trailing unit.

Supply recorded Ki for CNC(=O)[C@@H](NC(=O)[C@H](OCc1ccccc1)[C@H](O)[C@@H](O)[C@@H](OCc1ccccc1)C(=O)N[C@H](C(=O)NC)c1ccccc1)c1ccccc1 here.
0.0023

----------
Molecular target: purified HIV proteinase (Human immunodeficiency virus type 1 group M subtype B)
Construct: purified HIV proteinase
Experiment: biochemical
property_measured: pIC50
# pIC50: negative log10 of molar concentration; output just the value

Supply pIC50 value. Item: CNC(=O)[C@@H](NC(=O)[C@H](OCc1ccccc1)[C@H](O)[C@@H](O)[C@@H](OCc1ccccc1)C(=O)N[C@H](C(=O)NC)C(C)C)C(C)C [Example 1]
7.82

----------
Biological target: purified HIV proteinase (Human immunodeficiency virus type 1 group M subtype B, UniProt P04585)
Construct: purified HIV proteinase
Assay: biochemical
Conditions: values in parentheses; affinity constant; read-out: (Ki μM)
Each entry below carries its reported Ki.
Form field: result (number plus unit)

Worked cases, answers included:
Could you please provide reported Ki for CNC(=O)C(NC(=O)C(OCc1cccc(F)c1)C(O)C(O)C(OCc1cccc(F)c1)C(=O)NC(C(=O)NC)C(C)C)C(C)C (stereo not drawn) ? Thanks!
0.002 µM

Tell me its Ki given O=C(N[C@H]1c2ccccc2C[C@H]1O)[C@H](OCc1ccc(F)cc1F)[C@H](O)[C@@H](O)[C@@H](OCc1ccc(F)cc1F)C(=O)N[C@H]1c2ccccc2C[C@H]1O as the entry.
0.00038 µM

API: the following record is the query input.
Assign Ki to the following record: CNC(=O)[C@@H](NC(=O)[C@H](OCc1ccccc1C)[C@H](O)[C@@H](O)[C@@H](OCc1ccccc1C)C(=O)N[C@H](C(=O)NC)C(C)C)C(C)C
0.0035 µM

----------
# log10 of Ki per entry
Biological target: purified HIV proteinase (Human immunodeficiency virus type 1 group M subtype B)
Construct: purified HIV proteinase
Assay: biochemical
Settings: values in parentheses; affinity constant; read-out: (Ki μM)
// units: nM (pre-log); metric: Ki; scale: log10

Check out these entries, answers already filled in.
Determine from records and report log10 of Ki for O=C(NCc1c(F)cccc1Cl)[C@H](OCc1ccccc1F)[C@H](O)[C@@H](O)[C@@H](OCc1ccccc1F)C(=O)N[C@H]1c2ccccc2C[C@H]1O
0.15

Return log10 of Ki (reported value) for this molecule: CNC(=O)[C@@H](NC(=O)[C@H](OCc1ccc(F)cc1)[C@H](O)[C@@H](O)[C@@H](OCc1ccc(F)cc1)C(=O)N[C@H](C(=O)NC)C(C)C)C(C)C
0.36

Indicate its recorded log10 of Ki; the molecule in question is O=C(N[C@H]1c2ccccc2C[C@H]1O)[C@H](OCc1ccc(F)cc1)[C@H](O)[C@@H](O)[C@@H](OCc1ccc(F)cc1)C(=O)N[C@H]1c2ccccc2C[C@H]1O
-1.15

Name the recorded log10 of Ki of the molecule listed here: CCOC1=C(c2ccc(CO[C@@H](C(=O)N[C@H](C(=O)NC)C(C)C)[C@H](O)[C@@H](O)[C@@H](OCc3ccc(C4=C(OCC)C(=O)CCC4)cc3)C(=O)N[C@H](C(=O)NC)C(C)C)cc2)CCCC1=O
-0.52

Give recorded log10 of Ki. CC(C)C(NC(=O)C(OCc1ccccc1)C(O)C(O)C(OCc1ccccc1)C(=O)NC(C(=O)NC1CC1)C(C)C)C(=O)NC1CC1 (stereo not drawn)
0.53

# ---- query molecule ----
Answer with the recorded log10 of Ki of CCC(C)[C@H](NC(=O)[C@H](OCc1ccccc1)[C@H](O)[C@@H](O)[C@@H](OCc1ccccc1)C(=O)N[C@H](C(=O)NC)C(C)CC)C(=O)NC (stereo partly drawn) only.
0.95

----------
Target: purified HIV proteinase (Human immunodeficiency virus type 1 group M subtype B)
Construct: purified HIV proteinase
Experiment: biochemical
property_measured: pKi
API: returns pKi as number; meaning -log10 of concentration in mol/L.

Worked cases, pKi given:
Assign pKi to the following record: CNC(=O)C(NC(=O)C(OCc1ccc(-c2ccccn2)cc1)C(O)C(O)C(OCc1ccc(-c2ccccn2)cc1)C(=O)NC(C(=O)NC)C(C)C)C(C)C (stereo not drawn) [Example 22]
9.21

Provide measured pKi value, entry: O=C(NC1c2ccccc2CC1O)C(OCc1ccccc1)C(O)C(O)C(OCc1ccccc1)C(=O)NC1c2ccccc2CC1O (stereo not drawn) [Example 10]
8.80

Here's the next entry for you.
Give me measured pKi, please, for this compound: CNC(=O)[C@@H](NC(=O)[C@H](OCc1ccc(/C=C/C(=O)OC)cc1)[C@H](O)[C@@H](O)[C@@H](OCc1ccc(/C=C/C(=O)OC)cc1)C(=O)N[C@H](C(=O)NC)C(C)C)C(C)C [Example 31]
10.05
